test system: C. albicans ATCC 24433; assay: Antifungal susceptibility, broth dilution MIC (CLSI M27-A2); type: cell-based; settings: Candida albicans, ATCC24433; C. albicans ATCC 24433; broth dilution, RPMI 1640 with MOPS, 48 hours; read-out: Activity against organisms (MIC50) Ca01
RECORDED METRIC: MIC50 (µg/mL)

COc1ccc(CN2CCN(c3ccc(C(=O)/C=C/c4ccc(OCc5cn(CC(O)(Cn6cncn6)c6ccc(F)cc6F)nn5)cc4)cc3)CC2)cc1 (stereo not shown) [Compound 1B-8]    0.12

I: OCc1cn(CC(O)(Cn2cncn2)c2ccc(F)cc2F)nn1 (stereo not shown) [Compound 8A-1]
II: CCCC/C=C/c1ccc(OCc2cn(CC(O)(Cn3cncn3)c3ccc(F)cc3F)nn2)cc1 (stereo not shown) [Compound 1C-2]
Looking at recorded values for MIC50, does I or II come in lower? Which one? Tell me its label. II
(II: 0.12 µg/mL, I: 32 µg/mL)
